Biological target: JAK2 (JH1domain-catalytic, Y1007F,Y1008F) kinase (Homo sapiens, UniProt O60674, Y1007F/Y1008F)
Construct: JAK2 (JH1domain-catalytic, Y1007F,Y1008F) kinase was expressed as N-terminal fusion
Sequence (O60674 849-1124 Y1007F/Y1008F limits assumed): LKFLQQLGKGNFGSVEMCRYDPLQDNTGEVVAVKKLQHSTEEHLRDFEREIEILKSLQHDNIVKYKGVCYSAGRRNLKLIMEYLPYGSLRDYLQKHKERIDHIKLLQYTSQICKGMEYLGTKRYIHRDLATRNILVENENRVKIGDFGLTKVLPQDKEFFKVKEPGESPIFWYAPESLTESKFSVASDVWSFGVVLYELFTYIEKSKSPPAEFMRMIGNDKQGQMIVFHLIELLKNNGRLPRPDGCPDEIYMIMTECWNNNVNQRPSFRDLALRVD
Assay: JAK2 JH1 Domain Binding Assay
Conditions: qPCR readout
compounds and their reported Kd

Give the measured Kd for `COCCOc1cn2ncc(Oc3cnc4nc(Nc5cc(C6CC6)cn(C)c5=O)n(C)c4c3Cl)c2cn1`
< 10 nM

Give the measured Kd for `CNc1nccn2ncc(Oc3cnc4nc(Nc5cc(-n6cnc(C)c6)cc(C(F)(F)F)c5)n(C)c4c3Cl)c12`
10 to 50 nM

Give the measured Kd for `CNc1cn2ncc(Oc3cnc4nc(Nc5cc(OC[C@H]6CCCN6C)cc(C(F)(F)F)c5)n(C)c4c3Cl)c2cn1`
< 10 nM

Give the measured Kd for `Cn1c(Nc2cc(C3CC3)nn([C@H]3CCOC3)c2=O)nc2ncc(Oc3cnn4ccccc34)c(Cl)c21`
< 10 nM
